The measurements presented in this section are drawn from patent US10669272B2.

Assayed target: human DGKα (Homo sapiens, UniProt P23743)
Construct: TVMV protease cleavage site (C); Hexa-His (C); made in house; host or cells: Sf9 insect cells (baculovirus, Bac-to-Bac)
Sequence (P23743 with tags, fused parts or gaps): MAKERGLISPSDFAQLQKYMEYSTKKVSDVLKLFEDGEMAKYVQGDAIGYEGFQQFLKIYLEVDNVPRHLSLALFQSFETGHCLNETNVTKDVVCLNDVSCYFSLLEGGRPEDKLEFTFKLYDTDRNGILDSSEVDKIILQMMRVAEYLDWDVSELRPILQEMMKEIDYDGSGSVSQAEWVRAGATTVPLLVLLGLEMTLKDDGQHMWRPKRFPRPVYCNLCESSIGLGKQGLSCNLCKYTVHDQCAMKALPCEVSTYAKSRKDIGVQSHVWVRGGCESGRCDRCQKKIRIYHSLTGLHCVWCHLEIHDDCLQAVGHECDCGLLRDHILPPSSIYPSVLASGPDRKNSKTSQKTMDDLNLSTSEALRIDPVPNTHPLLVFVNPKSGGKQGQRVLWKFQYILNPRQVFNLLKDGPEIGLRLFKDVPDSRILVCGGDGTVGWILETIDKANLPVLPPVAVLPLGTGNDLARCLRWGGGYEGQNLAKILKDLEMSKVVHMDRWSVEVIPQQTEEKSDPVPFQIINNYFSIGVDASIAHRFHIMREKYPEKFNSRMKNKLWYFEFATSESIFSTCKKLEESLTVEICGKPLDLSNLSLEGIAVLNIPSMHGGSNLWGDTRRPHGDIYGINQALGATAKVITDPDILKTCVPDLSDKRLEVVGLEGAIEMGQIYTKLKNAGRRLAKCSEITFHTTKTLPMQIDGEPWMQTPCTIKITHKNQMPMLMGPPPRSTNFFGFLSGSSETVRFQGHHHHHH
Measurement notes: DGKα LIPGLO assay (extruded liposome substrate), in vitro DGK inhibition
Assay type: biochemical
Details: liposome (LIPGLO) assay; read-out: DGKa LIPGLO IC50
Endpoint label: IC50 (nM)

Molecule	Value units	IC50
Cn1c(=O)cc(N2CCN(C(c3ccc(F)cc3)c3ccc(F)cc3)CC2C2CC2)c2nc(C#N)ccc21 (single isomer, unassigned) [Example 24]	nM	1500

(A) C[C@@H]1CN(c2cc(=O)n(C)c3ccc(C#N)nc23)[C@@H](C)CN1Cc1cccc2c1N(C)C(=O)CO2
(B) C[C@@H]1CN(c2cc(=O)n(C)c3ccc(C#N)nc23)[C@@H](C)CN1Cc1cc(F)cc(F)c1
(C) COC[C@@H]1CN(c2cc(=O)n(C)c3ccc(C#N)nc23)[C@@H](C)CN1C(c1ccc(F)cc1)c1nc(C2CC2)cs1 (single isomer, unassigned)
Could you please order the items by IC50, going from the lowest number to the highest? Sort the labels as requested; that list is your answer. C, B, A
